# assayProcedure: Degradation in 1M KOH
# Format: physicochemical
Each record here notes measured Degradation in 1M KOH, k.
reportedMetric: Degradation in 1M KOH, k (s⁻¹)

- compound: "C[N+](C)(C)CC(O)C[n+]1ccc(-c2cc[n+](CC(O)C[N+](C)(C)C)cc2)cc1 (stereo not shown) [Dex-Vi]"
  outputUnit: "s⁻¹"
  endpointResult: "3.22e-06"
- compound: "C[N+](C)(C)CC(O)C[n+]1ccc(-c2cc[n+](CC(O)CO)cc2)cc1.[Cl-].[Cl-].[Cl-] (stereo not shown) [Dex-DiOH-Vi]"
  outputUnit: "s⁻¹"
  endpointResult: "4.06e-06"
- compound: "O=S(=O)([O-])CC[n+]1ccc(-c2cc[n+](CC(O)CO)cc2)cc1.[Cl-] (stereo not shown) [DiOH-EtS-Vi]"
  outputUnit: "s⁻¹"
  endpointResult: "4.4e-06"
- compound: "OCC(O)C[n+]1ccc(-c2cc[n+](CC(O)CO)cc2)cc1.[Cl-].[Cl-] (stereo not shown) [DiOH-Vi]"
  outputUnit: "s⁻¹"
  endpointResult: "2.296e-06"

###

# assayProcedure: Solubility in pure water
# Assay type: physicochemical
# cond: pure water, 18 °C, water, thermodynamic from solid, Example 2; read-out: Water Solubility

- compound: "C[N+](C)(C)CC(O)C[n+]1ccc(-c2cc[n+](CC(O)C[N+](C)(C)C)cc2)cc1 (stereo not shown)"
  solubility / mM: 1800

###

In this section, each of the compounds is paired with its reported EIS i^0.
# assayProcedure: Electrochemical impedance spectroscopy (EIS)
# Assay type: physicochemical
# cond: Example 2
reportedMetric: EIS i^0

- compound: "OCC(O)C[n+]1ccc(-c2cc[n+](CC(O)CO)cc2)cc1.[Cl-].[Cl-] (stereo not drawn) [DiOH-Vi]"
  endpointResult: "1.14E−03 A"
- compound: "OCC[n+]1ccc(-c2cc[n+](CCO)cc2)cc1.[Cl-].[Cl-] [EtOH-Vi]"
  endpointResult: "4.53E−03 A"
- compound: "C[N+](C)(C)CC(O)C[n+]1ccc(-c2cc[n+](CC(O)C[N+](C)(C)C)cc2)cc1 (stereo not drawn) [Dex-Vi]"
  endpointResult: "6.57E−04 A"
- compound: "O=S(=O)([O-])CC[n+]1ccc(-c2cc[n+](CC(O)CO)cc2)cc1.[Cl-] (stereo not drawn) [DiOH-EtS-Vi]"
  endpointResult: "7.76E−03 A"
- compound: "O=S(=O)([O-])CC(O)C[n+]1ccc(-c2cc[n+](CC(O)CO)cc2)cc1.[Cl-] (stereo not drawn) [DiOH-SHOP-Vi]"
  endpointResult: "4.06E−03 A"
- compound: "C[N+](C)(C)CC(O)C[n+]1ccc(-c2cc[n+](CC(O)CS(=O)(=O)[O-])cc2)cc1.[Cl-].[Cl-] (stereo not drawn) [Dex-SHOP-Vi]"
  endpointResult: "1.57E−03 A"
